target: CYP2D6 (Homo sapiens (Human)); assay: Cytochrome P450 inhibition assay, recombinant CYP2D6 (MAMC substrate); type: in vitro ADME; conditions: recombinant enzyme
Sequence (P10635 whole entry): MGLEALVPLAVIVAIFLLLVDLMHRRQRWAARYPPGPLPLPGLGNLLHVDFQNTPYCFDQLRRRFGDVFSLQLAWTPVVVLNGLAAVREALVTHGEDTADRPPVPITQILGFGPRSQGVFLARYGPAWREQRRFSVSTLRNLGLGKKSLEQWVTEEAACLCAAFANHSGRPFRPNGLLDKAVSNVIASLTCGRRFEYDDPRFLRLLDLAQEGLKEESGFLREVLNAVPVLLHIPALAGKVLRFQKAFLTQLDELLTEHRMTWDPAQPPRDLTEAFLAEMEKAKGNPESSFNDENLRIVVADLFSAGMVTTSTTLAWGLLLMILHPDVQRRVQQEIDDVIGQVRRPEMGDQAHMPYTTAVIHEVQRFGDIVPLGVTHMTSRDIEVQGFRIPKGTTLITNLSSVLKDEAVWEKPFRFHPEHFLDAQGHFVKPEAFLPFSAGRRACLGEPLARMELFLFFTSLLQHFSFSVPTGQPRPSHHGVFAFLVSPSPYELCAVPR
Quick reference: pIC50 of the listed items.
# pIC50 is unitless: minus log10 of the molar concentration; print number only

# annotated cases, reported pIC50 shown
Reported pIC50 for CNCC(C[C@H](O)c1ccccc1)c1ccc2ccccc2c1 (stereo partly drawn) [Compound 85] : what is it?
6.00

Request: CNCC(c1ccc(F)c(Cl)c1)[C@H](O)c1ccccc1 (stereo partly drawn) [Compound 73]
6.10

***
Given the entry CN(C)C[C@H](c1ccc2ccccc2c1)[C@H](N)c1ccccc1 [Compound 82] , report its measured pIC50.
6.00
